Origin of the recorded values: patent US4239780A

biological target: BEE VENOM PHOSPHOLIPASE A2 (Apis mellifera, UniProt P00630)
Sequence (P00630 34-167 limits assumed): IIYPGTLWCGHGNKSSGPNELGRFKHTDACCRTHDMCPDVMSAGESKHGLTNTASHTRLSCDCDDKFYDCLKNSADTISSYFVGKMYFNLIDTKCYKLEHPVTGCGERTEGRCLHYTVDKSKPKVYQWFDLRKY
Where a name gives a salt, the structure may show the parent alone.
test_readout: IC50 (µM)
The figure you give is taken to be in µM; do not add the unit.

Problem: Missing value: IC50, BEE VENOM PHOSPHOLIPASE A2 (Apis mellifera, UniProt P00630), entry CO[C@]1(c2ccccc2C)CC[C@@H](NCCCC(=O)c2ccc(F)cc2)CC1 [C, hydrochloride] . Fill in?
Solution: 404
